experimental_target: Renin (Homo sapiens, UniProt P00797)
Sequence (P00797 whole entry): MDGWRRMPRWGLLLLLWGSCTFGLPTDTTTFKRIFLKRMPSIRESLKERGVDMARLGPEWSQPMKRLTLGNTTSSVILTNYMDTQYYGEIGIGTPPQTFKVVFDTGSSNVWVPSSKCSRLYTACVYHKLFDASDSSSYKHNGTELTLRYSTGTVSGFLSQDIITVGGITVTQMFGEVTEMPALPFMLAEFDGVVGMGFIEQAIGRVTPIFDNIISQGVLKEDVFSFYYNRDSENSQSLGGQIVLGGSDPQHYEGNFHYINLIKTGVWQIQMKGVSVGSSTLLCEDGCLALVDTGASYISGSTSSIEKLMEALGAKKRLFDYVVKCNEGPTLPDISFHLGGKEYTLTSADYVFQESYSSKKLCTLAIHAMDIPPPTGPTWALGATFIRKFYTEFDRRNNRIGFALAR
assay_info: Inhibition of human recombinant renin in human citreated-plasma
pIC50: −log10 of the molar value.
measured_quantity: pIC50

Record excerpt, results attached:
(Q) What pIC50 value was documented for this compound, `COCCCc1cc(CN(C(=O)[C@H]2CNCC[C@@H]2c2ccc(OCCOc3c(Cl)cc(C)cc3Cl)cc2)C2CC2)cc(OCCC(C)(C)C(=O)O)c1` ?
(A) 8.05

(Q) What pIC50 value was documented for this compound, `COCCCc1cc(CN(C(=O)[C@H]2CNCC[C@@H]2c2ccc(OCCOc3c(Cl)cc(C)cc3Cl)cc2)C2CC2)cc(OC[C@H]2C[C@@H]2C(=O)NS(C)(=O)=O)c1` ?
(A) 8.68

(Q) What pIC50 value was documented for this compound, `COCCCc1cc(CN(C(=O)[C@H]2CNCC[C@@H]2c2ccc(OCCOc3c(Cl)cc(C)cc3Cl)cc2)C2CC2)cc(OCCCNS(C)(=O)=O)c1` ?
(A) 8.54

[A] CCNC(=O)NCCCOc1cc(CCCOC)cc(CN(C(=O)[C@H]2CNCC[C@@H]2c2ccc(OCCOc3c(Cl)cc(C)cc3Cl)cc2)C2CC2)c1
[B] COCCCc1cc(CN(C(=O)[C@H]2CNCC[C@@H]2c2ccc(OCCOc3c(Cl)cc(C)cc3Cl)cc2)C2CC2)cc(OCCCC(C)(C)C(=O)O)c1
(Q) // which entry has the larger pIC50 value, A or B ? Write the label of whichever entry you select.
(A) A
